- method-summary: yeast display, Sf9 membrane polyspecificity reagent, FACS + sequencing; frameworks hold sequencing errors
measurement-label: polyreactivity (PSR sort gate)

QVQLVESGGGLVQAGGSLRLTCAASGRTFPLNVMGWYRQAPGKERELVAAITVSAGSTYYADSVKGRFTISRDNAKNTVYLQMNSLKPEDTAVYYCAKATSSFYHYRYDYWGQGTQVTVSS :: low polyreactivity
QVQLVESGGGLVQAGGSLRLSCAASGIIFVFNAMGWYRQAPGKERELVAVISTSGDSTYYADSVKGRFTISRDNAKNTVYLQMNSLKPEDTAVYYCAADQRVTYRRGRAYDKYYYWGQGTQVTVSS :: low polyreactivity

###

- method-summary: yeast display, Sf9 membrane polyspecificity reagent, FACS + sequencing; frameworks hold sequencing errors
measurement-label: polyreactivity (PSR sort gate)

Examples from the recorded data:
QVQLVESGGGLVQAGGSLRLSCAASGGTLRGYAMGWYRQAPGKERELVAAISKRSGSTYYADSVKGRFTISRDNAKNTVYLQMNSLKPEDTAVYYCNTRGLTTEGHYYWGQGTQVTVSS :: high polyreactivity
LVQLVESGGGLVQAGGSLRLICAAYGSIFALNSLGWYSQAPGKERELVAAISRGDGTKYEHTVKGRFTISRDNAKTTVYLQMTSLKPEYTAVYYCAKDYWFRWRWPYNHWGLGTQVTVSS :: low polyreactivity
QVQLVESGGGLVQAGGSLRLSSAASGSIFAYNDMGWYRQAPGKERELVAAITWSGDSTYYADSVKGRFTISRDNAKNTVYLQMNSLKPEDTAVYYCATDPLFKTSTRWKYDYWGQGTQVTVSS :: low polyreactivity
QVQLVESGGGLVQAGGSLRLSCAASGLIFSLNAMGWYRHATGKERELVAAISSDDSTYYADSVKGRFTISRDNAKNNVYLQMNSLTPEDTAVYYCAAVQLVPGYVDSNDYYWGQGTQVTVSS :: low polyreactivity
QVQLVESGGGLVQAGGSLRLSCAASGSILYYYAMGWYRQAPVKERELVATITSGGTTNYADSVKGRFTISRDNAKNTVYLQMISLKPEDTAVYYCAADWAWDTKSAPAYPRAYDYWGPGTQVTVSS :: low polyreactivity
QVQLVESGGGLVQAGGSLRLSCAASGSIFIGYAMGWYRQAPGKERELVAAISWSGDSTYYADSVKGRFTISRDNAKNTVYLQMNSLKPEDTAGYYCAADDLDYDNYYQITGEYDYWGQGTQVTVSS :: high polyreactivity
QVQLVESGGGLVQARGILRLSCAASGSTFYTYTAMGWYRQAPGKERELVAAITWRGGSTYYADSVKGRFTIARDNAKNTVYLQMNSLKPQDSAVSSCAATLNRYGYDYWGQGTQVTVSS :: high polyreactivity
QVQLVESGGGLVQAGGSLRLSCAASGFIFDQNAMGWYRQAPGKERELVAAISKRGGSTYYADSVKGRFTISRDNAKNTVYLQMNSLKPEDTAVYYCATRSWGPYYYGYNHWGQGTQETVSS :: high polyreactivity

QUERY: Specify measured polyreactivity (PSR sort gate) for QVQLVESGGGLVQAGGSLRLSCAASGRTGVNAIGWYRQAPGKERELVAAINNGDSTYYADSVKGRFTISRDNAKNTVYLQMNSLKPEDTAVYYCAAGLDEGDYWQESDYWGQGTQVTVSS .
RESULT: low polyreactivity

QUERY: Specify measured polyreactivity (PSR sort gate) for QVQLVESGGGLVQAGGSLRLSCAASGLIFLYNAMGWYRQAPGKERELVAAISRSGGSTYYADSVKGRFTISRDNAKNTVYLQMNSLKPEDTAVYYCNARWPLGVSRGGMGYWGQGTQVTVSS .
RESULT: high polyreactivity

QUERY: Specify measured polyreactivity (PSR sort gate) for QVQLVESGGGLVQAGGSIRLSCAASGTIFRSYAMGWYRQAPGKERELVAAITSSSGSTYYADSVKGRFTISRDNAKNTVYLQMNSLKPEDTAGYYFNAPYWKSRFRAYYHWGQGTQVTVSS .
RESULT: high polyreactivity

###

- method-summary: yeast display, Sf9 membrane polyspecificity reagent, FACS + sequencing; frameworks hold sequencing errors
measurement-label: polyreactivity (PSR sort gate)

QVQLVESGGGSVQAGGSLRLSCSASGIIFWYYTMGRNRQAPGKERELVAAISCSSGITYYADSVKGRFTISRDNSKNTVYLQMNSLKPEDTAVYYCAARKFFWRSNYDYWGQGTQVTVSS :: low polyreactivity
QVQLVESGGGLVQAGGSLRLSCAASGFTFDINAMGWYRQAPGKERELVADITSGGTTDYADSVKGRFTISRDNAKNTVYLQMNSLKPEDTADYYCAAEVLDAYYGDDYWGQGTQVTVSS :: high polyreactivity
QVQLVESGGGLVQAGGSLRLSCAASGRIFYRNAMGWYRQAPVKERELVASITWRGGRTYYADSVKGRFTISRDNAKNTVYLQMNSLKQEDTAVYYCNAAPRTYNAWDFDYWGQGTQVTVSS :: high polyreactivity
QVQLVESGGGLVQAGGSLSLSCAASGSTYLDYTMGWYIQAPGKERELVAVISYRAGSTYYADSVKGRFTISRDNAKNTVYLLMHSLKPEDTAVYYCNADYYNYWRRRRYVWYESWGQGTQVTVSS :: low polyreactivity
QVQLVESGGGLVQAGGSLRLSCAASGGTFKYYDMGWYRQAPGKEREFVAAISKRVSSTYYADSVKGRFTISRDNAKNTVYLQMNSLKPEDTAVYYCAAYPVRYYNQYDYWGQGTQVTVSS :: low polyreactivity
PVQLVESGGGLVQAGGSLRLSCAASGFTFDENAMGWYRQAPGITYSGASTYYADSVKGPYTISRANAQNTVYLQMNSLKPEDTAVYYCAAEVVAQMNYWGQGTQVTVSS :: low polyreactivity

QUERY: Specify measured polyreactivity (PSR sort gate) for QVQLVESGGGVVQAGGSLRLSCAASGRIFNWYAMGWYRQAPGKEREFVAAINWNGDSTHYADSVKGRFTISRDNAKNTVYLLMNSLKPEDTAVYYCNARVFVTRSYYWGQGTQVNVSS .
RESULT: low polyreactivity

QUERY: Specify measured polyreactivity (PSR sort gate) for QVQLVESGGGLVQAGGSLRLSCAASGSIFPVYTMGWYRQAPGKEREFVATITISGAITYYADSVKGRFTISRDNAKNTVYLQMTSLKPEDTAVYYCNTGPMYFPANDYWGQGTQVTVSS .
RESULT: low polyreactivity

QUERY: Specify measured polyreactivity (PSR sort gate) for QVQLVESGGGLVQAGGILRLSCAASGRIFSRYVMGWYRQAPGKEREFVASITWSGSSTYYADSVKGRFTISRDNAKNTVYLQMNSLKPEDTAVYYCAALGLLSPSPWGTHISEYDSWGQGTQVTVSS .
RESULT: low polyreactivity

###

- method-summary: yeast display, Sf9 membrane polyspecificity reagent, FACS + sequencing; frameworks hold sequencing errors
measurement-label: polyreactivity (PSR sort gate)

Examples from the recorded data:
QVQLVESGGGLVQAGGSLRLSCAASGRTFRPYAMGWYRQAPGKERELVAAITRSGGSTYYADSVKGRFTISRDNAKNTVYLQMNSLKPEDTAVYYCAAYNTYSDTYDYWGQGTQVTVSS :: low polyreactivity
QDQLVESVGGLNQAGGSLRLSCAASGIIFYPYTIGWYRQAPGKERELVAAIRQSGTSTYYADSVKGRFTISRDNAKNTVYLQMNSLKPEDTAVYYCNVEPYQPPGHDRSYAYDYWGQGTQVTVSS :: low polyreactivity
QVQLVESGGGLVQAGGSLRLSCAASGFIFYRYAMGWYRQAPGKERELVAAISYSGGSTYYADSVKGRFTISRDNAKNTVYLQMNSLKPEDTAVYYCAKGLTALGDYWGQGTQVTVSS :: high polyreactivity
QVQLVESGGGLVQAGGSLRLSCAASGSTFIANAMGWYRQAPGKEREFVATISRRGGSTYYADSVKGRFTISRDNAKNTVYLQMNSLKPEDTAVYYCAARPLTYIRFRYYYWGQGTQVSVSS :: high polyreactivity

QUERY: Specify measured polyreactivity (PSR sort gate) for QVQLVESGGGLLQAGGSLRLSCAASGRIFGDYGMGWYRQAPGKERELVAAITDRGGTTYYADSVKGRFTISRDNAKKTVYLQMNSMKPEDNAVYYCNARQSDIFDYDYWGQGTQVTVSS .
RESULT: low polyreactivity

###

- method-summary: yeast display, Sf9 membrane polyspecificity reagent, FACS + sequencing; frameworks hold sequencing errors
measurement-label: polyreactivity (PSR sort gate)

QVQLVESGGGLVQAGGSLRLSCAASGRTFGKNAMGWYRQAPGKEREYVAAITSRGGSTYYADSVKGRFTISRDNAKNTVYLKMYSLKPDDTAFYFCNREYKRPSQRTEHYYWGQGTQVTVSS :: low polyreactivity
QVQLLESGGGLVQAGGTLPLSCAASGRTFKYYAMGWYRQAPGKERELVAGISSTGRTNYADSVKGRFTISRDNAKNTVYLEMNSLKPEDTAVYYCNAERKSFGKFVYWGQGTLVTVSS :: high polyreactivity
QDQLVESGGGLVQAGGSLRLSCAASGFISRKNAMGWSRQAPGKERELVATITKSGDTTYYADSVKGRFTISRDNAKNTVYLQMNSLKPEDTAVYYCAAPLYYIGSWDYYVRYIYDYWGQGTQVTVSS :: low polyreactivity
QVQLVESGGGLVQAGGSLRLSCAASGRTFLSYTMGWYRQATGKERELVAAITTSGGSTNYADSVKGRFSISRDTAKNTVYLQMNRLKPEDTAVYYCADEWSVYFNDPRSDYWGQGTQVTVSS :: high polyreactivity
QVQLVESGGGLVQAGGSLRLSCAASGRIGRYAMGWYRQAPGKESELVAVITSGDSTYYADSVKGRFTITRDNAKNTVYFQMNSLKPEDTAVYYCAADSYRRWGILFTGNEYDSWGQGTQVTVSS :: low polyreactivity
QVQLVESGGGLVQAGGSLRLSCAASGSILAGYAMGWYRQAPGKERELVAAISGGGGSTYYADSVKGRFTISRDNAKNTVYLQMNSLKPEDTAVYYCAAQDTYYGLFSYWIPWSGYWGQGTQVTVSS :: high polyreactivity
QVQLVESGGGLVQAGGSLRLSCAASGSTFRRNAMGWYRQAPGKERELVATISTRGGSTYYADSVKGRLTLSRDNAKNTVYLQMNSLKPEDTAVYYCAADRRSGYSRSKYGRGDYWGQGTQVTVSS :: high polyreactivity
QVQLVESGGGLVQAGGSLRLSCAASGRIFQYNAMGWYRQAPGKERELVAAITGGGSTYYADSVKGRFTISRDNAKNTVYLQMNSLKPEDTAVYYCNKAWSCSWLLTYGYWGQGTQVTVSS :: high polyreactivity
QVQLVESGGGLVQAGGSLRLSCAASGRIFRNNAMGGDRQAPGKERELVASITSSGGSTYYADSVKGRFTISRDNAKNTVYLQMNSLKPEDTAVYYCAAYTRSGYGYKLYYYWGQGTQVNVSS :: high polyreactivity
QVQLVESGGGLVQAGGSLRLSCAASGSTFPGYAMGWYRQAPGKERELVASITSSGDNTYYADSVKGRFTISRDNAKNSVYLQMNSLKPEDTAVYYCAAPTKYRSRRYYWGQGTQVTVSS :: high polyreactivity

QUERY: Specify measured polyreactivity (PSR sort gate) for QVQLVESGGGLVQAGGSLRLSCAASGLIFITYAMGWYIQAPGKERELVATITLRGGSTYYADSVKGRFTISRDNAKNTVYLQMNSLKPEDTAVYYCAADVGYWGRSRGYPSDDYDYWGQGTQVTVSS .
RESULT: low polyreactivity
